Sourced from BindingDB's records for doi:10.1021/jm00343a011

log10(IC50) values by entry
Assayed target: Malate dehydrogenase, cytoplasmic (Sus scrofa, UniProt P11708)
Sequence (P11708 whole entry): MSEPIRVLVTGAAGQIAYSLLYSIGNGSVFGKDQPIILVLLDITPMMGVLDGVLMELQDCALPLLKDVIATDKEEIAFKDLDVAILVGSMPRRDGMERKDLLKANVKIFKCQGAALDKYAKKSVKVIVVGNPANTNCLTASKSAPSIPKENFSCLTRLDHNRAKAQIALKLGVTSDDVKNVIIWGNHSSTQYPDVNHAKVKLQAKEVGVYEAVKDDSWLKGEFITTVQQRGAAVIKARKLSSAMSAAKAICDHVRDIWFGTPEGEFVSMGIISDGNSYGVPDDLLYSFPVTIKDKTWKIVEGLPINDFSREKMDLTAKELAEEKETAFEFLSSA
Value type: log10(IC50) (log10 of the value in µM)

Structure as smiles: O=C(O)c1cnc2cc(OCc3ccc(Oc4ccccc4)cc3)ccc2c1O
Value type: log10(IC50)
Value: 1.49

Structure as smiles: O=C(O)c1cnc2cc(O)ccc2c1O
Value type: log10(IC50)
Value: 2.98

Structure as smiles: O=C(O)c1cnc2cc(OCCc3ccccc3)ccc2c1O
Value type: log10(IC50)
Value: 2.19

Structure as smiles: CC(=O)c1ccc2c(O)c(C(=O)O)cnc2c1
Value type: log10(IC50)
Value: 2.96

Structure as smiles: O=C(O)c1cnc2cc(Cl)ccc2c1O
Value type: log10(IC50)
Value: 3.67

Structure as smiles: NS(=O)(=O)c1ccc2c(O)c(C(=O)O)cnc2c1
Value type: log10(IC50)
Value: 2.84

Structure as smiles: O=C(O)c1cnc2cc(OCCc3ccc(Br)cc3)ccc2c1O
Value type: log10(IC50)
Value: 1.96

---

pIC50: −log10 of the molar value.
Here we list compounds with their recorded pIC50 when tested on Malate dehydrogenase, mitochondrial (Sus scrofa, UniProt P00346).
Sequence (P00346 whole entry): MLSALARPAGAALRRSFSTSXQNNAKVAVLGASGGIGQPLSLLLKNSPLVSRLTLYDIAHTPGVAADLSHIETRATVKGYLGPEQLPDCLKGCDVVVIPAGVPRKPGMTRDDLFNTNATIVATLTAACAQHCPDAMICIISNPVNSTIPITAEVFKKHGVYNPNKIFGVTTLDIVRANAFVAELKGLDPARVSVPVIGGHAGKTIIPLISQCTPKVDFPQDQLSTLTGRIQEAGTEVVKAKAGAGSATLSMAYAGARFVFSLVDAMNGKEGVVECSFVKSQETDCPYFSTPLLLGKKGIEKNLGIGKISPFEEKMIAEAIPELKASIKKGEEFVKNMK

Structure as smiles: O=C(O)c1cnc2cc(OCCc3ccc(Oc4ccccc4)cc3)ccc2c1O
pIC50: 5.74

Structure as smiles: O=C(O)c1cnc2cc(OCCc3ccc(F)cc3)ccc2c1O
pIC50: 4.83

Structure as smiles: O=C(O)c1cnc2cc(OCc3ccccc3)ccc2c1O
pIC50: 4.49
